assay.summary: NCI Yeast Anticancer Drug Screen. Data for the mec2-1 strain (AID 157)
setup.conditions: S. cerevisiae mec2-1 strain, at 50.0 µM, stronger effect = higher value
This is part of a sample that, as a whole, favours compounds with a hit. Of some 79,000 tested, about 15% had one in any assay.
growth inhibition listing for selected molecules.

[
  {
    "molecule": "c1ccc2c(c1)CCC2",
    "growth inhibition [%]": -10.2
  },
  {
    "molecule": "COc1cc(C(=O)NC(=S)Nc2csc(-c3ccc(F)cc3)n2)cc(OC)c1OC",
    "growth inhibition [%]": -12.8
  },
  {
    "molecule": "O=C(Nc1ccc(Cl)c(C(F)(F)F)c1)C(=O)c1c(O)c2ccccc2oc1=O",
    "growth inhibition [%]": 4.7
  },
  {
    "molecule": "CCOc1ccc(C2OCC(C)O2)cc1OC (stereo unspecified)",
    "growth inhibition [%]": 13.6
  },
  {
    "molecule": "NC(=O)c1ccccc1N=NNc1ccccc1",
    "growth inhibition [%]": -4.65
  },
  {
    "molecule": "O=c1cc(CSc2ncnc3nc[nH]c23)occ1O",
    "growth inhibition [%]": -4.4
  }
]

The values you see were collected from PubChem BioAssay (NCI).
